Item-by-item account of IC50
# STUDY_TARGET: TNFα (Homo sapiens (Human))
# TEST: TNF induced HEK-Blue assay
# EXPERIMENTAL_CONDITIONS: TNFα 0.5 ng/ml; HEK-Blue-CD40L cells, NF-κB-driven secreted alkaline phosphatase reporter; 18 h

For orientation, consider the following solved cases.
Inquiry: Data request, read-out IC50, for CC(C)(O)c1ccc(-c2ccc3nc4n(c3n2)C(c2ccccc2OC(F)F)CC4)cc1 (racemic) [Example 26 (rac)]
Reply text: < 1000 nM

Inquiry: One more molecule: CC(C)(O)c1ccc(-c2ccc3nc4n(c3n2)C(c2ccccc2C2CC2)CC4F)cc1 (single isomer, unassigned) [Example 21 (e2)]
Reply text: 1000 to 10000 nM

Inquiry: One more molecule: COc1ccccc1C1CC(O)c2nc3ccc(-c4ccc(C(C)(C)O)cc4)nc3n21 (single isomer, unassigned) [Example 12 (e4)]
Reply text: 1000 to 10000 nM

Inquiry: One more molecule: CC(C)(O)c1ccc(-c2ccc3nc4n(c3n2)C(c2ccccc2C(F)(F)F)CC4O)cc1 (single isomer, unassigned) [Example 1 (e2)]
Reply text: 1000 to 10000 nM

Inquiry: One more molecule: CC(C)(O)c1ccc(-c2ccc3nc4n(c3n2)C(c2cc(F)ccc2C(F)(F)F)CC4F)cc1 (stereo not drawn) [Example 24 (e4)]
Reply text: < 1000 nM

Moving on to another molecule below.
Inquiry: Data request, read-out IC50, for COc1ccccc1C1CC(O)c2nc3ccc(-c4ccc(C(C)(C)O)cc4)nc3n21 (single isomer, unassigned) [Example 12 (e2)]
Reply text: 1000 to 10000 nM

----------
# STUDY_TARGET: TNFα (Homo sapiens (Human), UniProt P01375)
# Sequence (P01375 77-233): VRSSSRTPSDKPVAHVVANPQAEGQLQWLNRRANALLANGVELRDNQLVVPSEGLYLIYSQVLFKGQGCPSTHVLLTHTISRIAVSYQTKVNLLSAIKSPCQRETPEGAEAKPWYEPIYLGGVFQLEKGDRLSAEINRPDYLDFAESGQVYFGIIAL
# TEST: TNF induced HEK-Blue assay
# EXPERIMENTAL_CONDITIONS: TNFα 0.5 ng/ml; HEK-Blue-CD40L cells, NF-κB-driven secreted alkaline phosphatase reporter; 18 h
pIC50: −log10 of the molar value.
Item-by-item account of pIC50

For orientation, consider the following solved cases.
Inquiry: What pIC50 appears in the records for this compound with TNFα (Homo sapiens (Human), UniProt P01375)? CC(C)(O)c1ncc(-c2ccc3nc4n(c3n2)C(c2ccccc2OC(F)F)CC4F)cn1 (stereo not shown) [Example 16 (e3)]
Reply text: 4.60 to 5.00

Inquiry: One more compound: CC(C)(O)c1ncc(-c2ccc3nc4n(c3n2)C(c2ccccc2OC(F)F)CC4F)cn1 (stereo not shown) [Example 16 (DM)]
Reply text: > 6.00

Inquiry: One more compound: CC(C)(O)c1ccc(-c2ccc3nc4n(c3n2)C(c2ccccc2OC(F)F)CC4)cc1 (single isomer, unassigned) [Example 26 (e2)]
Reply text: 4.60 to 5.00

Inquiry: One more compound: CC(C)(O)c1ccc(-c2ccc3nc4n(c3n2)C(c2cc(F)ccc2C(F)(F)F)CC4O)cc1 (single isomer, unassigned) [Example 13 (e2)]
Reply text: 5.00 to 6.00

Inquiry: One more compound: CC(C)(O)c1ccc(-c2ccc3nc4n(c3n2)C(c2ccccc2OC(F)F)CC4F)cc1 (stereo not shown) [Example 15 (DM)]
Reply text: > 6.00

---
Inquiry: What pIC50 appears in the records for this compound with TNFα (Homo sapiens (Human), UniProt P01375)? CC(C)(O)c1ccc(-c2ccc3nc4n(c3n2)C(c2cc(C(F)(F)F)ccc2C(F)(F)F)CC4O)cc1 (stereo not shown) [Example 8 (DM)]
Reply text: 5.00 to 6.00

Inquiry: One more compound: Cc1ccc(C)c([C@H]2CCc3nc4ccc(-c5cnn(C)c5)nc4n32)c1 [Example 40]
Reply text: 5.00 to 6.00

----------
# STUDY_TARGET: TNFα (Homo sapiens (Human))
# TEST: TNF induced HEK-Blue assay
# EXPERIMENTAL_CONDITIONS: TNFα 0.5 ng/ml; HEK-Blue-CD40L cells, NF-κB-driven secreted alkaline phosphatase reporter; 18 h
pIC50: −log10 of the molar value.
ASSAY_READOUT: pIC50

Inquiry: What pIC50 appears in the records for this molecule with TNFα (Homo sapiens (Human))? CC(C)(O)c1ccc(-c2ccc3nc4n(c3n2)C(c2ccccc2C(F)(F)F)CC4O)cc1 (single isomer, unassigned) [Example 1 (e1)]
Reply text: > 6.00

Inquiry: One more molecule: CC(C)(O)c1ncc(-c2ccc3nc4n(c3n2)C(c2ccccc2OC(F)F)CC4)cn1 (racemic) [Example 27 (rac)]
Reply text: > 6.00

Inquiry: One more molecule: CC(C)(O)c1ccc(-c2ccc3nc4n(c3n2)C(c2cc(F)ccc2C(F)(F)F)CC4F)cc1 (single isomer, unassigned) [Example 24 (e1)]
Reply text: 5.00 to 6.00

Inquiry: One more molecule: Cc1ccc(C)c(C2CC(O)c3nc4ccc(-c5cnc(N6CCOCC6)nc5)nc4n32)c1 (stereo not drawn)
Reply text: > 6.00

Inquiry: One more molecule: CC(C)(O)c1ccc(-c2ccc3nc4n(c3n2)C(c2ccccc2C2CC2)CC4)cc1 (single isomer, unassigned) [Example 33 (e1)]
Reply text: > 6.00

Inquiry: One more molecule: CC(C)(O)c1ccc(-c2ccc3nc4n(c3n2)C(c2ccccc2C2CC2)CC4O)cc1 (single isomer, unassigned) [Example 9 (e3)]
Reply text: 5.00 to 6.00

----------
Item-by-item account of IC50
# STUDY_TARGET: TNFα (Homo sapiens (Human))
# TEST: TNF induced HEK-Blue assay
# EXPERIMENTAL_CONDITIONS: TNFα 0.5 ng/ml; HEK-Blue-CD40L cells, NF-κB-driven secreted alkaline phosphatase reporter; 18 h

Inquiry: Data request, read-out IC50, for CC(C)(O)c1ccc(-c2ccc3nc4n(c3n2)C(c2ccccc2C(F)(F)F)CC4)cc1 (racemic) [Example 25 (rac)]
Reply text: < 1 µM

---
Inquiry: Data request, read-out IC50, for COc1ccc(-c2ccc3nc4n(c3n2)C(c2ccccc2OC(F)F)CC4F)cn1 (single isomer, unassigned) [Example 18 (e1)]
Reply text: < 1 µM

Inquiry: One more compound: FC(F)Oc1ccccc1C1CCc2nc3ccc(-c4cnc(N5CCOCC5)nc4)nc3n21 (racemic) [Example 28 (rac)]
Reply text: < 1 µM

Inquiry: One more compound: Cc1ccc(C(F)(F)F)cc1C1CC(O)c2nc3ccc(-c4ccc(C(C)(C)O)cc4)nc3n21 (stereo not shown)
Reply text: 1 to 10 µM

Inquiry: One more compound: COc1ccc(-c2ccc3nc4n(c3n2)C(c2ccccc2OC(F)F)CC4)cn1 (racemic) [Example 29 (rac)]
Reply text: 1 to 10 µM

Inquiry: One more compound: CC(C)(O)c1ccc(-c2ccc3nc4n(c3n2)C(c2ccccc2C2CC2)CC4F)cc1 (stereo not shown) [Example 21 (e3)]
Reply text: 1 to 10 µM

Inquiry: One more compound: CC(C)(O)c1ccc(-c2ccc3nc4n(c3n2)C(c2ccccc2C(F)(F)F)CC4F)cc1 (single isomer, unassigned) [Example 14 (e1)]
Reply text: 1 to 10 µM

Inquiry: One more compound: CC(C)(O)c1ccc(-c2ccc3nc4n(c3n2)C(c2c(F)cccc2C(F)(F)F)CC4)cc1 (racemic) [Example 32 (rac)]
Reply text: < 1 µM

Inquiry: One more compound: CC(C)(O)c1ccc(-c2ccc3nc4n(c3n2)C(c2cc(F)ccc2C(F)(F)F)CC4)cc1 (single isomer, unassigned) [Example 34 (e2)]
Reply text: 1 to 10 µM

Inquiry: One more compound: CC(C)(O)c1ncc(-c2ccc3nc4n(c3n2)C(c2ccccc2OC(F)F)CC4F)cn1 (stereo not shown) [Example 16 (e2)]
Reply text: < 1 µM

Inquiry: One more compound: Cn1cc(-c2ccc3nc4n(c3n2)C(c2ccccc2OC(F)F)CC4F)cn1 (stereo not shown) [Example 19 (e3)]
Reply text: 1 to 10 µM

Inquiry: One more compound: `COc1ccc(-c2ccc3nc4n(c3n2)[C@@H](c2cc(C)ccc2C)CC4)cn1`
Reply text: 1 to 10 µM

Inquiry: One more compound: COc1ccccc1C1CCc2nc3ccc(-c4ccc(C(C)(C)O)cc4)nc3n21 (stereo not shown) [Example 31 (e1)]
Reply text: < 1 µM

Inquiry: One more compound: Cn1cc(-c2ccc3nc4n(c3n2)C(c2ccccc2OC(F)F)CC4)cn1 (racemic) [Example 30 (rac)]
Reply text: 1 to 10 µM

Inquiry: One more compound: CC(C)(O)c1ccc(-c2ccc3nc4n(c3n2)C(c2ccccc2OC(F)F)CC4F)cc1 (stereo not shown) [Example 15 (e1)]
Reply text: < 1 µM

Inquiry: One more compound: Cc1ccc(C)c(C2CC(O)c3nc4ccc(-c5ccc(C(C)(C)O)cc5)nc4n32)c1 (stereo not shown)
Reply text: < 1 µM

Inquiry: One more compound: COc1ccccc1C1CCc2nc3ccc(-c4cnc(N5CCN(CC(=O)O)CC5)nc4)nc3n21 (racemic) [Example 35 (rac)]
Reply text: 1 to 10 µM

Inquiry: One more compound: CC(C)(O)c1ccc(-c2ccc3nc4n(c3n2)C(c2ccccc2C(F)(F)F)CC4)cc1 (single isomer, unassigned) [Example 25 (e1)]
Reply text: < 1 µM

Inquiry: One more compound: CC(C)(O)c1ccc(-c2ccc3nc4n(c3n2)C(c2ccccc2C2CC2)CC4O)cc1 (stereo not shown) [Example 9 (e1)]
Reply text: < 1 µM

Inquiry: One more compound: CC(C)(O)c1ccc(-c2ccc3nc4n(c3n2)C(c2ccccc2OC(F)(F)F)CC4F)cc1 (single isomer, unassigned) [Example 22 (e4)]
Reply text: < 1 µM

Inquiry: One more compound: CC(C)(O)c1ccc(-c2ccc3nc4n(c3n2)C(c2ccccc2OC(F)F)CC4F)cc1 (stereo not shown) [Example 15 (e4)]
Reply text: 10 to 25 µM

Inquiry: One more compound: CC(C)(O)c1ncc(-c2ccc3nc4n(c3n2)C(c2ccccc2OC(F)F)CC4O)cn1 (stereo not shown) [Example 11 (e1)]
Reply text: < 1 µM

Inquiry: One more compound: OC1CC(c2ccccc2OC(F)F)n2c1nc1ccc(-c3cnc(N4CCOCC4)nc3)nc12 (stereo not shown)
Reply text: < 1 µM

Inquiry: One more compound: Cc1ccc(C)c(C2CC(F)c3nc4ccc(-c5cnc(C(C)(C)O)nc5)nc4n32)c1 (stereo not shown)
Reply text: < 1 µM

From: patent US10189840B2
